- Assay Protocol: In vitro enzyme assay to detect hydrolysis of chlorophenol red-beta-D-[…] directly proportional to the number of Toxoplasma stably expressing beta-galactosidase
- Type: functional, organism-based, Toxoplasma gondii
- Parameters: scale not given: in the data most compounds retested in dose-response had high values
- Settings: 50 µM
Out of some 85,000 compounds screened, about 440 (0.52%) showed an effect of 50% or more. For the sample, strong results were picked, then their nearest neighbours and some compounds at random.
Measured Percent Effect values are reported for all entries that follow.

{"columns": ["Compound", "Percent Effect"],
 "data": [
  ["CCc1nsc(N2CC(CO)C2)n1", "7.559%"],
  ["CN(C)[C@@H]1CN(C(=O)c2cccn2C)C[C@H]1CO", "-4.756%"],
  ["Cc1nnc(CNC(=O)Nc2ccc(F)cc2)o1", "-6.078%"],
  ["CN(CCCC1CCCO1)C(=O)c1cccc(N)n1 (centres undefined)", "1.142%"],
  ["CCCc1cc(C(=O)N2CCOC(C(F)(F)F)C2)no1 (centres undefined)", "-10.86%"],
  ["O=C1CC[C@@H](CO)N1", "-0.2195%"],
  ["N#CCCNC(=O)CN1CCCCCC1", "-10.45%"],
  ["CCC(=O)N1CCCN(C(=O)C(N)C(C)(C)C)CC1 (centres undefined)", "9.824%"],
  ["CN(C)C(=O)CNC(CO)c1ccc(Cl)c(F)c1 (centres undefined)", "52.18%"],
  ["COc1cc(Br)c(CN)cc1OC", "44.43%"],
  ["CCN(CC)C(=O)CN(C)C(=O)Cc1cccc(F)c1", "1.744%"],
  ["N#CCCNC(=O)CN1CCCC1", "96.45%"],
  ["COc1ccccc1NC(=O)CC#N", "50.64%"],
  ["CNCC(=O)Nc1ccccc1OC", "7.8%"],
  ["C[C@H](N)c1ccc(F)cc1OC(F)F", "1.744%"],
  ["O=C(NCc1ccc2c(c1)OCO2)Nc1nccs1", "-9.702%"],
  ["CCOC(=O)C1(C(C)C)CCN(C(=O)c2cn[nH]c2)C1 (centres undefined)", "-4.733%"],
  ["N#CCC(=O)Nc1ccccc1I", "0.5556%"],
  ["O=C(Nc1nncs1)c1cccc(O)c1", "-14.91%"],
  ["NCCCc1nc(-c2ccncc2)cs1", "-3.15%"],
  ["NCCc1cc(-c2ccncc2)[nH]n1", "52.85%"],
  ["Cc1cc(C(=O)N(C)Cc2ccncc2C)[nH]n1", "-2.921%"],
  ["CNS(=O)(=O)c1ccc(C(=O)NCC(C)(C)N(C)C)o1", "-2.111%"],
  ["CCC(C)CS(=O)(=O)Nc1ccc(F)c(C(N)=O)c1 (centres undefined)", "12.83%"],
  ["Cc1cccc(OCC(=O)NCC2CCNCC2)c1", "-0.8091%"],
  ["Cc1cc(F)cc(NC(=O)NC[C@@H]2CCCN2)c1", "21.68%"],
  ["CN(CC1CCOCC1)C(=O)c1ccc(CN)cc1", "0.3864%"],
  ["CNC(C)CCNC(=O)c1cc(C)nn1C (centres undefined)", "-4.64%"],
  ["O=C(CSc1nnnn1Cc1cccs1)NC1CC1", "-25.88%"],
  ["COCC(C)NC(=O)CCn1cnc2sccc2c1=O (centres undefined)", "-6.543%"],
  ["CC(O)CN1CCN(C(=O)CN(C)C2CC2)CC1 (centres undefined)", "3.925%"],
  ["O=C(CC1C=CCC1)NCc1ccccn1 (centres undefined)", "-4.879%"],
  ["CCS(=O)(=O)CCN(C)C(=O)Nc1cc(F)cc(Cl)c1", "0.02752%"],
  ["N[C@@H]1CC[C@@H]1NC(=O)c1scc2c1OCCO2", "-7.783%"],
  ["NCCS(=O)(=O)NCc1ccccc1", "-6.39%"],
  ["CC(C)c1ccc(S(=O)(=O)C(C)C(N)=O)cc1 (centres undefined)", "-3.645%"],
  ["CC(C)[C@@H]1CN(C(=O)c2ccc(O)cn2)C[C@H]1N(C)C", "-13.98%"],
  ["C[C@@H](CO)NC(=O)NCC1CCN(CC(F)(F)F)CC1", "-3.478%"],
  ["CCN(CC)CCOC1CCNCC1", "-2.471%"],
  ["Cc1nc(C)c(CNC(=O)c2ccnnc2)s1", "-0.5239%"],
  ["CC1(c2ccncc2)NC(=O)c2ccccc2N1 (centres undefined)", "11.28%"],
  ["CCSc1ccc(C(=O)NCCc2nnc[nH]2)cn1", "5.402%"],
  ["Cc1ccc(C(=O)N2CCN(c3nccn3C)CC2)o1", "58.26%"],
  ["CCO[C@@H]1COCC[C@H]1NC(=O)c1cncn1C", "0.586%"]
]}
